Assay: ATG_BRE_CIS: Attagene CIS-FACTORIAL HepG2 Assay for human Bone Morphogenetic Protein (BMP) Response Element (BRE) (AID 2282933)
Conditions: HepG2 BMP response element reporter, Attagene transcription factor profiling; actives raise or lower the signal
Description: ATG_CIS is a cell-based, multiplexed-readout assay that uses HepG2, a human liver cell line, with measurements taken at 24 hours after chemical dosing in a 24-well plate.ATG_BRE_CIS is one of 52 assay component(s) measured or calculated from the ATG_CIS assay. […] This assay endpoint, ATG_BRE_CIS, was analyzed with bidirectional fitting relative to DMSO as the negative control and baseline of activity. […]
Active and inactive are the calls of the source. How the source made its calls: active means hit-call score of the fitted dose curve at least 0.9, where 1 is the maximum; inactive means score below 0.9.

Molecule	outcome
C=C(C)C1CC=C(C)C(OC(C)=O)C1 (stereo not drawn)	inactive
COC(=O)c1ccccc1C	inactive
CCCC1CCCC(=O)O1 (stereo not drawn)	inactive
